System: Escherichia coli TOP10
Assay: shrunken log2 fold change of peptide-encoding DNA abundance (4.5 h post-induction vs induction); higher = less antimicrobial activity (less host growth inhibition)
Conditions: time post-induction: 4.5 h; library: site-saturation at positions 5, 18, 19, 20
Answer each item with its documented shrunken log2 fold change.
// response body must contain only the number

Exercise: Could you share what shrunken log2 fold change was measured for RRIRNRPPRLPRPRPRPGLPPRP , tested on Escherichia coli TOP10?;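 further: peptides expressed intracellularly from a pBAD plasmid library in pooled LB shake-flask culture, induced with 0.3% L-arabinose, DNA abundance read by NGS, three biological replicates, DESeq2 with apeglm shrinkage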
Key: 0.028

Exercise: Now the same for RRIRGRPPRLPRPRPRPHQSPRP
Key: 0.12

Exercise: # iterate: RRIRFRPPRLPRPRPRPWVEPRP
Key: -0.0273

Exercise: Another sequence to look at: RRIRWRPPRLPRPRPRPVWQPRP
Key: 0.301

Exercise: Queued: RRIRGRPPRLPRPRPRPHWNPRP
Key: -0.017

Exercise: Again, but for RRIRPRPPRLPRPRPRPQIPPRP
Key: -0.0392

Exercise: Now consider RRIRDRPPRLPRPRPRPLFFPRP .
Key: 0.648

Exercise: Another sequence to check: RRIRKRPPRLPRPRPRPMFFPRP
Key: -0.14

Exercise: Record: RRIRDRPPRLPRPRPRPWWSPRP
Key: -0.0691

Exercise: Continue with RRIRRRPPRLPRPRPRPGTHPRP
Key: 0.243

Exercise: RRIRCRPPRLPRPRPRPREHPRP ?
Key: 0.161

Exercise: Then what about the sequence RRIRMRPPRLPRPRPRPTHHPRP ?
Key: 0.316

Exercise: Now this one: RRIRQRPPRLPRPRPRPACRPRP
Key: -0.0513

Exercise: Same lookup for RRIRRRPPRLPRPRPRPNFWPRP , please.
Key: 0.198

Exercise: Also RRIRCRPPRLPRPRPRPWFRPRP , if possible.
Key: -0.269

Exercise: And the next one, RRIRPRPPRLPRPRPRPPQAPRP ?
Key: 0.335

Exercise: Would you mind doing RRIRSRPPRLPRPRPRPMHIPRP as well?
Key: -0.283

Exercise: Also, RRIRRRPPRLPRPRPRPEKHPRP please.
Key: 0.121

Exercise: Again, but for RRIRLRPPRLPRPRPRPYNCPRP
Key: -0.053

Exercise: Please answer likewise for RRIRTRPPRLPRPRPRPTWWPRP
Key: 0.538

Exercise: Record: RRIRPRPPRLPRPRPRPKKRPRP
Key: 0.136

Exercise: How about RRIRQRPPRLPRPRPRPLCHPRP ?
Key: -0.142

Exercise: Now consider RRIRFRPPRLPRPRPRPHDVPRP and answer again.
Key: -0.00911

Exercise: Then what about the sequence RRIRTRPPRLPRPRPRPHMTPRP ?
Key: -0.265

Exercise: What would you report for RRIRSRPPRLPRPRPRPHNDPRP ?
Key: -0.309

Exercise: Next up: RRIRQRPPRLPRPRPRPDGSPRP
Key: -0.0176

Exercise: One more sequence: RRIRERPPRLPRPRPRPLGIPRP
Key: -0.0554

Exercise: Same thing, different sequence: RRIRCRPPRLPRPRPRPMNFPRP
Key: -0.383

Exercise: What do we get for RRIRQRPPRLPRPRPRPWPKPRP ?
Key: 0.097

Exercise: Can you handle RRIRERPPRLPRPRPRPPQAPRP next?
Key: 0.154

Exercise: Also check RRIRTRPPRLPRPRPRPNQAPRP
Key: 0.00454

Exercise: Subsequent entry: RRIRFRPPRLPRPRPRPFHRPRP
Key: -0.0134
